Measured IC50 by item
Molecular target: P-selectin (Homo sapiens, UniProt P16109)
Construct: P-selectin is isolated from human platelet lysates
Sequence (P16109 42-830): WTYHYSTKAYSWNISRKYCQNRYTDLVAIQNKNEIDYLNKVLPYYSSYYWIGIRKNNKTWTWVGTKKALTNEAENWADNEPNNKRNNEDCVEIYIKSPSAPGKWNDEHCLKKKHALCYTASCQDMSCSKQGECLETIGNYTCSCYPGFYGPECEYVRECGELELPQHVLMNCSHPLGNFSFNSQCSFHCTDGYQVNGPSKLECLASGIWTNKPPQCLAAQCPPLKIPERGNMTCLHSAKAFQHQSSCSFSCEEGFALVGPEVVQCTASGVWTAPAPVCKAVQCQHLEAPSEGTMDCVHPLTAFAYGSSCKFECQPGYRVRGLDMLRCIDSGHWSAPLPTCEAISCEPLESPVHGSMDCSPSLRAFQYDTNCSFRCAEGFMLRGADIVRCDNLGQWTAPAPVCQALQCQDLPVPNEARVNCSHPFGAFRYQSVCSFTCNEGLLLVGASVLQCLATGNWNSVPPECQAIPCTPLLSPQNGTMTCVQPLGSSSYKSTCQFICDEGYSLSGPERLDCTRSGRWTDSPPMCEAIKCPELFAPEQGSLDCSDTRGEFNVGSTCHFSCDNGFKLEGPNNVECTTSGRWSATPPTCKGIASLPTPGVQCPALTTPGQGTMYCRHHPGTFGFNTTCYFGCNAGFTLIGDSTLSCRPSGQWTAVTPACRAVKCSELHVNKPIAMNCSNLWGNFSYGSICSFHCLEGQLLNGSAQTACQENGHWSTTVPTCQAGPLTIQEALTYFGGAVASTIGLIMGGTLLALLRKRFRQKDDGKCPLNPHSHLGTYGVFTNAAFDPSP
Assay: Inhibition of human neutrophil adhesion to purified P-selectin immobilized on plastic wells
Conditions: inhibiting the binding of human neutrophils to P-selectin
Where a SMILES comes first, the peptide text is derived from it. Bridges are numbered along the chain shown (N, C = ends). [ ]: non-standard residue; d: D form.
The reply should contain only the number, in µM.

CC(C)[C@@H](NC(=O)[C@@H](Cc1c[nH]c2ccccc12)NC(=O)[C@H](NC(=O)[C@@H](CCCCN)NC(=O)[C@H]1CSSC[C@@H](NC(=O)[C@@H](CCCCN)NC(=O)[C@H](N)CCCNC(=N)N)C(=O)NCC(=O)N[C@@H](Cc2ccccc2)C(=O)N1)[C@H](C)O)C(N)=O [(56)] (H-[dR][dK][dC]GF[dC][dK][dT][dW][dV]-NH2; disulfide 3-6) = 727
CC(C)[C@@H](NC(=O)[C@@H](Cc1c[nH]c2ccccc12)NC(=O)[C@H](NC(=O)[C@@H]1CCCN1C(=O)[C@H]1CSSC[C@@H](NC(=O)[C@@H](CCCCN)NC(=O)[C@H](N)CCCNC(=N)N)C(=O)NCC(=O)N[C@@H](Cc2ccccc2)C(=O)N1)[C@H](C)O)C(N)=O [(82)] (H-[dR][dK][dC]GF[dC]P[dT][dW][dV]-NH2; disulfide 3-6) = 547
CC[C@@H](C)[C@H]1NC(=O)[C@H](NC(=O)[C@@H](CCCCN)NC(=O)[C@H](N)CCCNC(=N)N)CSSC[C@H](C(=O)N[C@H](Cc2c[nH]c3ccccc23)C(=O)N[C@@H](C(=O)N[C@H](Cc2c[nH]c3ccccc23)C(=O)N[C@@H](C(N)=O)C(C)C)[C@H](C)O)NC(=O)[C@H](Cc2ccccc2)NC1=O [(93)] (H-[dR][dK][dC][dI]F[dC][dW][dT][dW][dV]-NH2; disulfide 3-6) = 67.5

Below: the item to evaluate.
I'd like to know its IC50. The molecule in question is CC(C)[C@@H](NC(=O)[C@@H](Cc1c[nH]c2ccccc12)NC(=O)[C@H](NC(=O)[C@@H](Cc1c[nH]c2ccccc12)NC(=O)[C@H]1CSSC[C@@H](NC(=O)[C@@H](CCCCN)NC(=O)[C@H](N)CCCNC(=N)N)C(=O)NCC(=O)N[C@@H](CCCNC(=N)N)C(=O)N1)[C@H](C)O)C(N)=O [(40)] (H-[dR][dK][dC]GR[dC][dW][dT][dW][dV]-NH2; disulfide 3-6)
324

---

Measured IC50 by item
Target: P-selectin (Homo sapiens, UniProt P16109)
Construct: P-selectin is isolated from human platelet lysates; from tissue; host or cells: human platelets (outdated platelet packs from a blood bank)
Experiment: Inhibition of human neutrophil adhesion to purified P-selectin immobilized on plastic wells
Format: cell-based
Conditions: inhibiting the binding of human neutrophils to P-selectin
Source text: Peptides can be screened for their ability to inhibit adhesion to cells, for example, neutrophil adhesion to purified P-selectin immobilized on plastic wells, using the assay described by Geng, et al., Nature 343, 757-760 (1990). Human neutrophils are isolated from heparinized whole blood by density gradient centrifugation on Mono-Poly resolving media, Flow Laboratories. […] Peak fractions with absorbance at 280 nm are pooled. […]
Where a SMILES comes first, the peptide text is derived from it. Bridges are numbered along the chain shown (N, C = ends). [ ]: non-standard residue; d: D form.
The reply should contain only the number, in µM.

Sample records with IC50:
CC[C@H](C)[C@@H]1NC(=O)[C@@H](NC(=O)[C@@H](N)CCCNC(=N)N)CSSC[C@@H](C(=O)N[C@@H](Cc2c[nH]c3ccccc23)C(=O)N[C@H](C(=O)N[C@@H](Cc2c[nH]c3ccccc23)C(=O)N[C@H](C(N)=O)C(C)C)[C@@H](C)O)NC(=O)CNC(=O)CNC1=O [(5)] (H-RCIGGCWTWV-NH2; disulfide 2-6) = 36
CC(C)[C@@H](NC(=O)[C@@H](Cc1c[nH]c2ccccc12)NC(=O)[C@H](NC(=O)[C@@H](Cc1c[nH]c2ccccc12)NC(=O)[C@H]1CSSC[C@@H](NC(=O)[C@@H](C)NC(=O)[C@H](N)CCCNC(=N)N)C(=O)NCC(=O)N[C@@H](Cc2ccccc2)C(=O)N1)[C@H](C)O)C(N)=O [(110)] (H-[dR][dA][dC]GF[dC][dW][dT][dW][dV]-NH2; disulfide 3-6) = 52.9
CC(C)[C@@H](NC(=O)[C@@H](Cc1ccc(O)cc1)NC(=O)[C@H](NC(=O)[C@@H](Cc1c[nH]c2ccccc12)NC(=O)[C@H]1CSSC[C@@H](NC(=O)[C@@H](CCCCN)NC(=O)[C@H](N)CCCNC(=N)N)C(=O)NCC(=O)N[C@@H](Cc2ccccc2)C(=O)N1)[C@H](C)O)C(N)=O [(63)] (H-[dR][dK][dC]GF[dC][dW][dT][dY][dV]-NH2; disulfide 3-6) = 19.3

What IC50 appears in the records for this compound with P-selectin (Homo sapiens, UniProt P16109)? CC(C)[C@@H](NC(=O)[C@@H](Cc1c[nH]c2ccccc12)NC(=O)[C@H](NC(=O)[C@@H](Cc1c[nH]c2ccccc12)NC(=O)[C@H]1CSSC[C@@H](NC(=O)[C@@H](CCCCN)NC(=O)[C@H](N)CC(=O)O)C(=O)NCC(=O)N[C@@H](Cc2ccccc2)C(=O)N1)[C@H](C)O)C(N)=O [(117)] (H-[dD][dK][dC]GF[dC][dW][dT][dW][dV]-NH2; disulfide 3-6)
238
